test: Solubility of the compound in phosphate buffered saline at pH 5; type: physicochemical
Result Type: solubility (µg/mL)
Give just the numeric value; µg/mL need not be written.

### Prompt # solubility lookup, item O.O=S(=O)(O)c1cccc2c(S(=O)(=O)O)cccc12.O=c1c2ccccc2c(Cc2ccc(Cl)cc2)nn1C[C@H]1CCCN1CCCCc1ccc(OCCCN2CCCCCC2)cc1
### Response 20

----------
target: Histamine H1 receptor (Homo sapiens, UniProt P35367); test: Antagonist activity at human recombinant histamine H1 receptor expressed in intact CHO cells assessed as inhibition of histamine-induced cellular calcium mobilization by FLIPR assay
Sequence (P35367 whole entry): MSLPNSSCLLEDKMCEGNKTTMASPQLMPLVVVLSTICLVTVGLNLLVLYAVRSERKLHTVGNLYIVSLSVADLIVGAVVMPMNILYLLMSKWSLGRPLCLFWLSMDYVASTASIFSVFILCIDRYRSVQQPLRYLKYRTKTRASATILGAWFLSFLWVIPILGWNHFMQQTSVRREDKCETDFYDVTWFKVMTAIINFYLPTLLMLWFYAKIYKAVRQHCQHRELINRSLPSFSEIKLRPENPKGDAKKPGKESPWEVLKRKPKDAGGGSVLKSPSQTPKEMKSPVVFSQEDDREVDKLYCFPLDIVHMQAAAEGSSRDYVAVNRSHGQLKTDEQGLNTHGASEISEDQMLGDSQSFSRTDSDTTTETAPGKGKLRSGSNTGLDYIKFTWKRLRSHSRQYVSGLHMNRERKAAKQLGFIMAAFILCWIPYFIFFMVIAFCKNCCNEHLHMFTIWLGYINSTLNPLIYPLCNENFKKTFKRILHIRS
Result Type: Ki (nM)

# count of solved cases: 5
CN1CCC[C@H]1Cn1nc(Cc2ccc(Cl)cc2)c2ccccc2c1=O: 0.316
COc1cccc(Cc2nn(C[C@H]3CCCN3C)c(=O)c3ccccc23)c1: 2
CN1CCC(n2nc(Cc3ccc(Cl)cc3)c3ccccc3c2=O)CC1: 1
CN1CCC[C@@H]1Cn1nc(Cc2ccc(Cl)cc2)c2ccccc2c1=O: 0.158
CCOc1ccc(Cc2nn(C[C@H]3CCCN3C)c(=O)c3ccccc23)cc1: 5.01

(P) CN(C)CCn1nc(Cc2ccc(Cl)cc2)c2ccccc2c1=O
(Q) CN(CCCCc1ccc(OCCCN2CCCCCC2)cc1)CCn1nc(Cc2ccc(Cl)cc2)c2ccccc2c1=O
### Prompt Given the listed records, identify the one among P and Q with higher Ki. Bench note: the answer is the label of the chosen record.
### Response Q

(A) CN1CCCC1CCn1nc(Cc2ccc(Cl)cc2)c2ccccc2c1=O (stereo not given)
(B) CN1CCC[C@@H]1Cn1nc(Cc2ccc(C(C)(C)C)cc2)c2ccccc2c1=O
### Prompt Quick one: lower Ki, A or B ? Bench note: the answer is the label of the chosen record.
### Response A

----------
target: Histamine H1 receptor (Homo sapiens, UniProt P35367); assay: Antagonist activity at human recombinant histamine H1 receptor expressed in intact CHO cells assessed as inhibition of histamine-induced cellular calcium mobilization by FLIPR assay
Result Type: Ki (nM)

CN1CCC(Cn2nc(Cc3ccc(Cl)cc3)c3ccccc3c2=O)C1 (stereo unspecified): 6.31

(a) Cc1ccc(Cc2nn(C[C@H]3CCCN3C)c(=O)c3ccccc23)cc1
(b) CN(C)CCCn1nc(Cc2ccc(Cl)cc2)c2ccccc2c1=O
(c) CCCCCc1nn(C[C@H]2CCCN2C)c(=O)c2ccccc12
(d) COc1ccc(Cc2nn(C[C@H]3CCCN3C)c(=O)c3ccccc23)cc1
### Prompt Rank items: key Ki, increasing. Give the labels in the order requested.
### Response d, a, c, b
(d: 0.1 nM, a: 0.2 nM, c: 1.58 nM, b: 10 nM)

----------
biological target: Histamine H3 receptor (Homo sapiens); assay: Antagonist activity at human recombinant histamine H3 receptor expressed in CHO cells assessed as inhibition of histamine-induced GTP-gammaS binding
Sequence (Q9Y5N1 whole entry): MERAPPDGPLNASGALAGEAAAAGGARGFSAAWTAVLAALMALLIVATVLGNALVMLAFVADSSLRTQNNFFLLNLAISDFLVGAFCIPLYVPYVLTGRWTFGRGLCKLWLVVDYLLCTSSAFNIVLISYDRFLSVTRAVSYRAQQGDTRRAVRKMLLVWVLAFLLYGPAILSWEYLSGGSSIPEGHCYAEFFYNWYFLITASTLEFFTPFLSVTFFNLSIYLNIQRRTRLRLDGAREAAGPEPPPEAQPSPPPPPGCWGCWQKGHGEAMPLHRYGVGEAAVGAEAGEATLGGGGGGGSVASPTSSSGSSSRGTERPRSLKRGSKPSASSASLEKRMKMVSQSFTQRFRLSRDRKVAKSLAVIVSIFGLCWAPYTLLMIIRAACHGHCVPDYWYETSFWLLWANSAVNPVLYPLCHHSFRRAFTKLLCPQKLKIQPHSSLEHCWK
pKi: −log10 of the molar value.
Result Type: pKi

# count of solved cases: 8
O=c1c2ccccc2c(Cc2ccc(Cl)cc2)nn1C[C@H]1CCCN1CCCCCc1ccc(OCCCN2CCCCCC2)cc1: 9.40
CN1CCC[C@@H]1Cn1nc(Cc2ccc(O)cc2)c2ccccc2c1=O: 6.60
O=c1c2ccccc2c(Cc2ccc(Cl)cc2)nn1C1CCCN(CCCCc2ccc(OCCCN3CCCCCC3)cc2)CC1 (stereo not given): 8.70
O=c1c2ccccc2c(Cc2ccc(Cl)cc2)nn1C1CCCN(Cc2ccc(OCCCN3CCCCCC3)cc2)CC1 (stereo not given): 9.30
CCOc1ccc(Cc2nn(C[C@H]3CCCN3C)c(=O)c3ccccc23)cc1: 6.50
COc1cccc(Cc2nn(C[C@H]3CCCN3C)c(=O)c3ccccc23)c1: 6.20
CN1CCC(n2nc(Cc3ccc(Cl)cc3)c3ccccc3c2=O)CC1: 6.90
CN1CCC[C@@H]1Cn1nc(Cc2ccc(Cl)cc2)c2ccccc2c1=O: 6.40

(P) O=c1c2ccccc2c(Cc2ccc(O)cc2)nn1C[C@H]1CCCN1CCCCc1ccc(OCCCN2CCCCCC2)cc1
(Q) CN1CCCC1CCn1nc(Cc2ccc(Cl)cc2)c2ccccc2c1=O (stereo not given)
(R) CN1CCCC(n2nc(Cc3ccc(Cl)cc3)c3ccccc3c2=O)CC1 (racemic)
### Prompt Rank items: key pKi, increasing. Give the labels in the order requested.
### Response R, Q, P
(R: 6.80, Q: 7.10, P: 9.40)

(P) CN1CCC[C@@H]1Cn1nc(Cc2cccc(F)c2)c2ccccc2c1=O
(Q) O=c1c2ccccc2c(Cc2ccc(Cl)cc2)nn1C1CCCN(CCCc2ccc(OCCCN3CCCCCC3)cc2)CC1 (stereo not given)
### Prompt Quick one: lower pKi, P or Q ? Bench note: the answer is the label of the chosen record.
### Response P

----------
Target: Alpha-1A adrenergic receptor (Homo sapiens, UniProt P35348)
Sequence (P35348 whole entry): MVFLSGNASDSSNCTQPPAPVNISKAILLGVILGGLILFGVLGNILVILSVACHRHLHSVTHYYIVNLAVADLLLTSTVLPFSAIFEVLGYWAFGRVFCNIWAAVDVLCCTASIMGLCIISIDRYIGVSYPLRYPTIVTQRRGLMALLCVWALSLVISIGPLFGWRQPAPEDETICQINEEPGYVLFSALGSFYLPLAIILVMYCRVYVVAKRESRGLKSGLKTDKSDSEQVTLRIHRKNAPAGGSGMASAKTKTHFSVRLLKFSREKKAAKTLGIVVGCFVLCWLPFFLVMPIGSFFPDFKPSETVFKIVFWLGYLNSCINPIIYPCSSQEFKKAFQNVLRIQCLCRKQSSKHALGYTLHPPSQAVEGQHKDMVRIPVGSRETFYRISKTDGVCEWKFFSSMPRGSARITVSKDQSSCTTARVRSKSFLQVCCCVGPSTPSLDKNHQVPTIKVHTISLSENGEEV
Test: Binding affinity to human adrenergic alpha1A receptor expressed in rat intact fibroblasts
Result Type: Ki (µM)

O=c1c2ccccc2c(Cc2ccc(Cl)cc2)nn1C1CCCN(CCc2ccc(OCCCN3CCCCCC3)cc2)CC1 (stereo not given): 0.0316
Cc1ccc(Cc2nn(C[C@H]3CCCN3C)c(=O)c3ccccc23)cc1: 0.01

(A) CCOc1ccc(Cc2nn(C[C@H]3CCCN3C)c(=O)c3ccccc23)cc1
(B) COc1ccc(Cc2nn(C[C@H]3CCCN3CCCCc3ccc(OCCCN4CCCCCC4)cc3)c(=O)c3ccccc23)cc1
### Prompt Given the listed records, identify the one among A and B with higher Ki. Bench note: the answer is the label of the chosen record.
### Response A
(A: 0.794 µM, B: 0.0631 µM)

(a) O=c1c2ccccc2c(Cc2ccc(Cl)cc2)nn1CCNCCCCc1ccc(OCCCN2CCCCCC2)cc1
(b) CN1CCC[C@@H]1Cn1nc(Cc2ccc(F)c(F)c2)c2ccccc2c1=O
### Prompt Given the listed records, identify the one among a and b with higher Ki. Bench note: the answer is the label of the chosen record.
### Response a
(a: 0.316 µM, b: 0.2 µM)

----------
molecular target: Alpha-1A adrenergic receptor (Homo sapiens, UniProt P35348); assay: Binding affinity to human adrenergic alpha1A receptor expressed in rat intact fibroblasts
pKi: −log10 of the molar value.
Result Type: pKi

# count of solved cases: 6
CN1CCCC(n2nc(Cc3ccc(Cl)cc3)c3ccccc3c2=O)CC1 (racemic) [AZELASTINE]: 7.30
CN1CCCC1CCn1nc(Cc2ccc(Cl)cc2)c2ccccc2c1=O (configuration not stated): 6.50
CN1CCCCC(n2nc(Cc3ccc(Cl)cc3)c3ccccc3c2=O)C1 (configuration not stated): 6.80
CN1CCC[C@@H]1Cn1nc(Cc2ccc(Cl)cc2)c2ccccc2c1=O: 7.60
O=c1c2ccccc2c(Cc2ccc(Cl)cc2)nn1C[C@H]1CCCN1CCCCc1ccc(OCCCN2CCCCCC2)cc1 [GSK-1004723]: 7.40
CN1CCC[C@@H]1Cn1nc(Cc2ccc(F)cc2)c2ccccc2c1=O: 7.20

(I) CN1CCC[C@@H]1Cn1nc(Cc2ccc(O)cc2)c2ccccc2c1=O
(II) O=c1c2ccccc2c(Cc2ccc(Cl)cc2)nn1C1CCCN(Cc2ccc(OCCCN3CCCCCC3)cc2)CC1 (configuration not stated)
(III) CN(CCCCc1ccc(OCCCN2CCCCCC2)cc1)CCn1nc(Cc2ccc(Cl)cc2)c2ccccc2c1=O
### Prompt Rank items: key pKi, increasing. Give the labels in the order requested.
### Response III, I, II

----------
assay: Volume of distribution at steady state in Beagle dog at 3 mg/kg, po and 1 mg/kg, iv; assay type: ADME, organism-based, Canis lupus familiaris; conditions: in vivo, read-out: Vdss
Result Type: Vd (L/kg)
Give just the numeric value; L/kg need not be written.

### Prompt # Vd lookup, item O=c1c2ccccc2c(Cc2ccc(Cl)cc2)nn1C[C@H]1CCCN1CCCCc1ccc(OCCCN2CCCCCC2)cc1
### Response 22

----------
test: Lipophilicity, log D of the compound; format: physicochemical; settings: octanol/water; read-out: logD
Result Type: logD

Cl.Cl.Cl.O=c1c2ccccc2c(Cc2ccc(Cl)cc2)nn1C[C@H]1CCCN1CCCCc1ccc(OCCCN2CCCCCC2)cc1: 2.86
CN1CCCC(n2nc(Cc3ccc(Cl)cc3)c3ccccc3c2=O)CC1.Cl (racemic) [AZELASTINE HYDROCHLORIDE]: 2.25
